# Assay Text: yeast display, Sf9 membrane polyspecificity reagent, FACS + sequencing; frameworks hold sequencing errors
Test Readout: polyreactivity (PSR sort gate)

The cases that follow already have their polyreactivity (PSR sort gate) on record.
Residue Sequence	Test Readout	Value
QVQLVESGGGLVQAGGSLRLSCAASGFIFQSYAMGWYRQAPGKERELVAAISASGGRTYYADSVKGRFTISRDNAKNTVYLQMNSLKPEDNAVYYCNARPAGRGYNYWGQGTQVTVSS	polyreactivity (PSR sort gate)	high polyreactivity
QVQLVESGGGLVQAGGSLRLSCAASGLIFVINAMGCYRQAPGKERELVATISSGVSTNNADSVKGRFTISRDNAKNTVYLQMYSLKPEDTAVYYCNKGQTVSRGYRLYERFVYWGQGTQVTVSS	polyreactivity (PSR sort gate)	low polyreactivity
QVQLVESGGGLVQAGGSLRLSCAPSGIIFRIYAMGWYRQAPGKEREFVAAISGSGDSTYYADSVKGRFTISRDNAKNTVYLQMNSLKPEDTAVYYCAADWTLVYYHEDYWGQGSQVTVSS	polyreactivity (PSR sort gate)	high polyreactivity
QVQLVESGGGLVQAGGSLRLSCAASGSTFTLNAMGWYRQAPGKERELVAAITTSGGSTYYADSVKGRFTISRDNAKNTVYLQMNSLKPEDTAVYYCNADGPWREVERPFRKEGNYWGQGTQVTVSS	polyreactivity (PSR sort gate)	low polyreactivity
QVQLVESGGGLVQAGGSLRLSCAASGIIFGYNAMGWYRQAPGKERELVAAISTSGGSTYYADSVKGRFTISRDNAKNTVYLQMNSLKPEDTAVYYCAAGYRRTYGFNYWGQGTQVTVSS	polyreactivity (PSR sort gate)	low polyreactivity

Given item QVQLVESGGGLVQAGGSLRLSCAASGRIFYFYVMGWYRQAPGKERELVAGISDGSTNYADSVKGRFTISRDNAKNTVYLQMNSLKPEDTAVYYCAKDPLVIRFVQGRFGYDYWGQGTQVTVSS , the value recorded as its polyreactivity (PSR sort gate) is low polyreactivity

Measured polyreactivity (PSR sort gate), QVQLVESGGGLVQAGGSLRLSCAASGSTFEANAMGWNRPAPWKERELVAVITWTGGSTYYADSVKGRFTISRDNAKNTVYLQMNSLKPEDTAVYYCAADGVVPGRFFWPAHEYDYWGQGTQVTVSS : low polyreactivity

So, QVQLVESGGGLVQAGGSLRLSCAASGNTFWRYTMGWYRQAPGKERELVAAISSSGGSTYYADSVKGRFTISRDNAKNTVYLQMNSLKPEDTAVYYCAAERRLYKIFSYGYWGQGTQVTVSS ? Its polyreactivity (PSR sort gate) was high polyreactivity

====

# Assay Text: yeast display, Sf9 membrane polyspecificity reagent, FACS + sequencing; frameworks hold sequencing errors
Test Readout: polyreactivity (PSR sort gate)

// known answers, use as guide
Residue Sequence	Test Readout	Value
QVQLVDSGGGLVQAGGSLRLSCAASGRIFRYNTMGWYRQAPGKEREFVAAITQRGVNTYYADSVKGRFTISRDNAKNTVYLQMNRLKPEDTAVYYCNAKRYSYWIYRAYDYWGQGTQVTVSS	polyreactivity (PSR sort gate)	low polyreactivity
QVQLVESGGGLVQAGGSLRLSCAASGYIFLANAMGWYRQAPGKERELVAAITSGGGGTYYADSVKGRFTISRDNAKNTVYLQMNSLKPEDTAVYYCAADHGRDGSSFEYWGQGTQVTVSS	polyreactivity (PSR sort gate)	low polyreactivity
QVQLVESGGGLVQAGGSLRLICAASGSIFSKYVMGWYREAPGKERDLVAAISWSGTRTYYADSVKGRFTISRDNAKNTVILQMNSMKAEDTAVYYCAARRLYAGHQYDYWGQGTIVTVSS	polyreactivity (PSR sort gate)	high polyreactivity
QVQLVESGGGLVQAGGSLRLSCAASGFTFTPYAMGLYSQAPGKERELVAAITWRGGTYYADSVKGRFTISRDNAKKSVYLQMNSLKPEDTAVYYCAARVWRLYPSTYDYWGQGTQVTVSS	polyreactivity (PSR sort gate)	high polyreactivity
QVQLVESGGGLVQAGGSLRLSCAASGSIFRGNAMGWYRQAPGKERELVATITNGGSTNYADSVKGRFTISRDNAKNTVYLQMNSLKPEDTAVYYCNADHSYHIASTRHVDYWGQGTQVTVSS	polyreactivity (PSR sort gate)	low polyreactivity

The measured polyreactivity (PSR sort gate) associated with QVQLVESGGGLVQAGGSLRLSCAASGFTFDKYAMGWYRQAPGKERELVAAISSSGGSTYYADSVKGRFTISRDNAKNTVYLQMNSLKPEDTAVYYCATGRIRWYARYDYWGHGTQVTVSS reads high polyreactivity

Documented polyreactivity (PSR sort gate) of QVQLVESGGGLVQAGGSLRLSCAASGRTFWIYTMGWYRQAPGKEREFVAAISIRGGSTYYADSVKGRFTISRDNAKNTVYLQMNSLKPEDTAVYYCAADGGYSLWADDDYWGQGTQVTVSS : low polyreactivity

Looking up QVQLVESGGGLVQAGGSLRLSCAASGSTFDYYDMGWYRPAPGKERELVAAISSGGDSTYYADSVKGRFTISRDNAKNTVYLQFNSLKPEDSAVYYCAAPDESYSVWRLDGLDYWGQGTQVTVSS , I see its polyreactivity (PSR sort gate) listed as high polyreactivity

====

# Assay Text: yeast display, Sf9 membrane polyspecificity reagent, FACS + sequencing; frameworks hold sequencing errors

Residue Sequence	polyreactivity (PSR sort gate)
QVQLVESGGGLVQAGGSLRLSCAASGRTFTQYAMGWYRQAPGKEREMVAAISWRGGSTYYADSVKGRFTISRDNAKNTVYVQMNSLKPEDTAVSYCAKRYFRGYPLYDYWGQGTQVTVSS	high polyreactivity
QVQLVESGGGLVQAGGSLRLSCAASGFIFTDYAMGWYRQAPGKERELVAAISSGGRTYYAVSVKGRFTISRDNAKNTVYIQMNSLKPEDTAVYYCARGGRAEGWGQGTQVTVSS	high polyreactivity
QVQLVESGGGLVQAGGSLRLSCAASGITFYVYTMGWDRQAPGKERELVAAITWSGGSTYYADSVKGRFTISRDNAKNTVYLQMKSLKPEDTAVYYCNRVGYWVGLDSWGQGTQVTVSS	high polyreactivity

====

# Assay Text: yeast display, Sf9 membrane polyspecificity reagent, FACS + sequencing; frameworks hold sequencing errors
Test Readout: polyreactivity (PSR sort gate)

Illustrative cases are given below, each with its answer.
Residue Sequence	Value
QVQLVESGGGLVQAGGSLRLSCAASGSIFRSYAMGWYRQAPGNERELVAAITRSGGSTYYADSVKGRFTISRDNAKNTVYLQMNSLKPEDTAVYYCAAEYYSYTWGWGHGYWGQGTQVTVSS	high polyreactivity
QVQLVESGGGLVQAGGSLRLSCAASGFTFLFYAKGWYRHAPGKEMELVAAISWSGDTTYYADSVKGRFTISLDNSKNTVYLQMNSLKPEDTAVYYCNAESNIFGYDYWGQGTQVTVTS	high polyreactivity
QVQLVESGGCLVQAGGSLRLSCAASGRTFSSNALGWYRHAPGKERELVAAITTTGGRTYYADSVKGRFTISRDNAKNTVYLQMNSLKPEDTAVYYCAARRRYGYDFWGHGTQVTVSS	high polyreactivity
QVQLVESGGGLVQAGGSLRISCAASGSTFSDYDMVWYRQAPGKERELVAAISKRGGSTDYADSVKGRFTFSRDNAKITVYLQMNSLKPEDTAVYYCAKDGTHGYDYWGQGTQVTVSS	low polyreactivity

Here is the next item to consider.
Value of polyreactivity (PSR sort gate) reported for the sequence QVQLVESGGGLVQAGGSLRLSCAASGSIFGEYAMGWYRQAPGKERELVADITTGGNTNYADSVKGRFTISRDYAKNTVYLQMNSLKPEDTAVYYCADEANYYVIFHGSWYTDDYWGQGTQVTVSS is low polyreactivity

====

# Assay Text: yeast display, Sf9 membrane polyspecificity reagent, FACS + sequencing; frameworks hold sequencing errors

Residue Sequence	polyreactivity (PSR sort gate)
QVQLVESGGGLVQAGGSLRLRSAASGIILGKYAMGWYRQAPGKERELVAAISGRGGRTYYADSVKGRFTISRDNAKNTVYLQMNSLKQEDTAVYYWWGQGTQVTVSS	low polyreactivity
QVQHVESGGGLVQAGGSLRLSCAASGYIFPGSAMGWYRPAPGKERELVAAISTSGGYTYYADSVKGRFTISRDNAKNTVYFQMNSLNPEVTAVYYCAADRYSTDPYAKGTEFYYWGQGTQVTVSS	low polyreactivity
QVQLVESGGGLVQAGGSLRLSSAASGLIFWAYAMGWYRQAPGKERELVAAINSGGRTYYADSVKGRFTISRDNAKNTVYLQMNSLKPEDTAVYYCAAAGVYSSDYWGQGTQVTVSS	low polyreactivity

====

# Assay Text: yeast display, Sf9 membrane polyspecificity reagent, FACS + sequencing; frameworks hold sequencing errors
Test Readout: polyreactivity (PSR sort gate)

Consider the reported polyreactivity (PSR sort gate) for these sequences:
Residue Sequence	polyreactivity (PSR sort gate)
QVQLVESGGGLVQAGGRLRLSCAASGNTFGINAMGWYRQAPGKEREFVAAITFGGGRTYYADSVKGRFTISRDNAKNTVYFQMNSLKPEDTAVYFCAARAPVVTYTWSSPRWWFDYWGQGTQVTVSS	high polyreactivity
QVQLVESGGGLVQAGGSLRLSCAASGRTFQYYTMGWYRQAPGKERELVAAISSSGVSTYYADSVKGRFTISRDNAKNTVYLQMNSLKPEDTAVYYCNAVSRARYHAAYDSWGQGTQVTVSS	high polyreactivity
QVQLVESGGGLVQAGGSLRLSCAASGIIFINYAMGWYRQAPGTERELVAVITRGGSTYYADSVKGRFTISRDNAKNTVYLQMNSLKPEDTAVYYCNARYLSWWTGRFNYWGQGTQVTVSS	high polyreactivity
QVQLVESGGGLVQAGGSLRLSCAASGRIFHPYAMGWYRPAPGKERELVAAITNSGGITYADSVKGRFTISRDNAKNTVYLQMNSLKPEDTSVYYCNTATNRFHYKYRKPYDYWGQGTQVTVSS	low polyreactivity
QVQLVESGGGLVQAGGSLRLSCAASGRTLYFNAMGWYRQAAGKERELVASITNGGRTNYADSVKGRFTISRDNAKNTVYLQMNSLKPEDTAVYYCAKRTLCSRGVNYYWGQGTQVTVSS	high polyreactivity
QVQLVESGGGLVQAGGSLRLSCAASGIIFFLYAMGWNRQAPGKERELVAAISSGGSTYYADSVKGRFTISRDNAKYTVYLQMNSLKPEDTAVYYFIARYWPFRYYYWGQGTQVTVSS	high polyreactivity
QVQLVESGGGLVQAGGSLRLSCAASGITFDRYVMGWYRQAPGKERELVAAISWTGDSTYYADSVKGRFTISRDNAKNTVYLQMNSQKPEDTAVYYCAAEDLWYGYNYWGQGTQVTVSS	high polyreactivity
QVQLEESGGGLVQAGGSLRLSCAASGSTFGYYAMGWYRQAPGKERELVAAISWSGTRTYYADSVKGRFTISRDNAKNTVYLQMNSLKPEDTAVYYCAAVYRGSYRGSYRFDDSHYDYSGQGTQVTVSS	high polyreactivity
QVQLVESGGGLVQAGGSLRLSCAASGRIFRYNAMGWYRQAPGKERELVAAISSGGSTNYADSVKGRFTTSRDNAKNTVYLQMNSLKPEDTAVYYCNAESVHRYPGWGYDYWGQGTQVTVSS	low polyreactivity
QVQLVESGGGLVQAGGSLRLSCADSVSIFRVNAKRWYTQAPGKERELVAGISSRGGTSTYYADSVKGRFTISRDNAKNTVYLQMNSLKPEDTAVYYCNKTDITTSRHDYWRQGTQVTVSS	low polyreactivity

The recorded polyreactivity (PSR sort gate) for entry QVQLVESGGGLVQEGGSLRLSCDASGLILLPYARGWYRQAPGKERELVAAISCSGGSTYYADSVKGRFTISRDNAKNTVYLQMNSLKPEVTAVYYCPARPNRQGFYYWGQGTQVTVSS equals high polyreactivity
